tested on: Plasmodium berghei; assay: Screen against P. berghei liver stage (PbLuc), transformed with Luciferase, at 10uM; format: functional, HepG2; details: tested at 10 uM
About 8,600 (12%) of roughly 69,000 compounds showed an effect of 50% or more. The list comes from a sample in which strong results are over-represented; it also holds close analogues and randomly drawn compounds.
Each record is given True if its reported INHIBITION is strictly below 20%. Records at or above 20% are given False.

INPUT: Find out if reported INHIBITION for Fc1ccccc1CN1CCCN(c2ccc3cc[nH]c3n2)CC1 is less than 20%
OUTPUT: False

INPUT: Find out if reported INHIBITION for COCCn1ccc2ccc(C(=O)O)cc21 is less than 20%
OUTPUT: True

INPUT: Find out if reported INHIBITION for CCn1cnnc1CNC(=O)N1CCOC(c2ccccc2Cl)C1 (configuration not stated) is less than 20%
OUTPUT: True

INPUT: Find out if reported INHIBITION for O=C(c1cccnc1)N1CCCC1c1nc(O)cc(-c2ccccn2)n1 (configuration not stated) is less than 20%
OUTPUT: False

INPUT: Find out if reported INHIBITION for O=C(NCc1nnc2ccccn12)N1CCc2sccc2C1 is less than 20%
OUTPUT: True

INPUT: Find out if reported INHIBITION for CN(C)C(C(=O)NCc1cc(C(C)(C)C)n[nH]1)c1ccc(F)cc1 (configuration not stated) is less than 20%
OUTPUT: False

INPUT: Find out if reported INHIBITION for O=C1CNc2ncnc(Nc3cnn(Cc4ccccc4F)c3)c2N1 is less than 20%
OUTPUT: False

INPUT: Find out if reported INHIBITION for CC(C)CC(=O)N1CC[C@H]2N(C)CC[C@@]2(C(=O)Nc2ccccc2)CC1 is less than 20%
OUTPUT: False

INPUT: Find out if reported INHIBITION for O=C(NCc1nnc2ccccn12)N1CCOC(c2ccsc2)C1 (configuration not stated) is less than 20%
OUTPUT: False

INPUT: Find out if reported INHIBITION for O=C1CNc2ncnc(N3CCN(c4ccccc4F)CC3)c2N1 is less than 20%
OUTPUT: False

INPUT: Find out if reported INHIBITION for c1cc(CN2CCCN(c3ccc4cc[nH]c4n3)CC2)ccn1 is less than 20%
OUTPUT: False

INPUT: Find out if reported INHIBITION for Cc1ccc(C2CN(C(=O)NCc3nnc4ccccn34)CCO2)o1 (configuration not stated) is less than 20%
OUTPUT: False

INPUT: Find out if reported INHIBITION for CCn1cc(-c2nn3c(C(F)(F)F)nnc3s2)cn1 is less than 20%
OUTPUT: True

INPUT: Find out if reported INHIBITION for Nc1nc(CNc2ncnc3c2CCN(Cc2ccoc2)CC3)cs1 is less than 20%
OUTPUT: False

INPUT: Find out if reported INHIBITION for CCCNS(=O)(=O)c1cnccc1N1CCN(C(C)C)CC1 is less than 20%
OUTPUT: True

INPUT: Find out if reported INHIBITION for CNc1nc2c(c(C(=O)N3CCCC3)n1)CN(Cc1ccco1)CC2 is less than 20%
OUTPUT: True

INPUT: Find out if reported INHIBITION for Cc1ccccc1CN1CCN(c2ncnc3c2NC(=O)CN3)CC1 is less than 20%
OUTPUT: True

INPUT: Find out if reported INHIBITION for Cc1ccc(C(=O)NCCC2CN(C3CCCC3)CCO2)c(C)c1 (configuration not stated) is less than 20%
OUTPUT: False

INPUT: Find out if reported INHIBITION for CC(=O)N1CCOCC2(C1)CN(S(C)(=O)=O)CCO2 (configuration not stated) is less than 20%
OUTPUT: True

INPUT: Find out if reported INHIBITION for O=C(NCCC1CN(C2CCCC2)CCO1)c1cc(=O)[nH]c(=O)[nH]1 (configuration not stated) is less than 20%
OUTPUT: False

INPUT: Find out if reported INHIBITION for c1ccc(CN2CCCC(CNc3ncnc4c3CCNCC4)C2)cc1 (configuration not stated) is less than 20%
OUTPUT: False

INPUT: Find out if reported INHIBITION for CC(C)Cc1noc(CN2CCN(C(=O)c3ccccc3F)CC2)n1 is less than 20%
OUTPUT: True

INPUT: Find out if reported INHIBITION for O=C1CNc2ncnc(N3CCN(Cc4ccccc4F)CC3)c2N1 is less than 20%
OUTPUT: False

INPUT: Find out if reported INHIBITION for O=C(NCc1nnc2ccccn12)N1CCOC(c2cccs2)C1 (configuration not stated) is less than 20%
OUTPUT: False

INPUT: Find out if reported INHIBITION for CC(C)Nc1ncnc2c1CCN(Cc1ccoc1)CC2 is less than 20%
OUTPUT: True

INPUT: Find out if reported INHIBITION for Cc1nnc2n1CCN(c1nc3ccccc3o1)C2 is less than 20%
OUTPUT: True

INPUT: Find out if reported INHIBITION for Cc1nn(-c2ccccc2)c(C)c1CN1CCNCC1 is less than 20%
OUTPUT: False

INPUT: Find out if reported INHIBITION for c1ccc2oc(N3CCn4c(nnc4C4CC4)C3)nc2c1 is less than 20%
OUTPUT: False

INPUT: Find out if reported INHIBITION for COCCCNC(=O)CN(C)C(=O)c1cc2cc(C)ccc2nc1C is less than 20%
OUTPUT: True

INPUT: Find out if reported INHIBITION for c1cncc(-c2noc(CNC3CCc4ncnn4C3)n2)c1 (configuration not stated) is less than 20%
OUTPUT: False

INPUT: Find out if reported INHIBITION for COc1ccc(N(C)C(=O)c2cccc(S(C)(=O)=O)c2)cn1 is less than 20%
OUTPUT: False

INPUT: Find out if reported INHIBITION for CN(Cc1nnc2n1CCC2)S(=O)(=O)c1cc(Br)ccc1Br is less than 20%
OUTPUT: False

INPUT: Find out if reported INHIBITION for COc1ccc(C)cc1-c1[nH]c2ccccc2c1C(=O)O is less than 20%
OUTPUT: True

INPUT: Find out if reported INHIBITION for CCn1c(CN2CCN(CCO)CC2)nc2c(F)cccc21 is less than 20%
OUTPUT: False

INPUT: Find out if reported INHIBITION for COCC(C)NC(=O)CN1CCC(C)CC1 (configuration not stated) is less than 20%
OUTPUT: True

INPUT: Find out if reported INHIBITION for Cc1nnc(CN(C)S(=O)(=O)c2ccc(Br)cc2Cl)n1C is less than 20%
OUTPUT: False

INPUT: Find out if reported INHIBITION for O=C(c1ccc(=O)[nH]n1)N(CCO)Cc1cc(Br)ccc1F is less than 20%
OUTPUT: False

INPUT: Find out if reported INHIBITION for c1cc(-c2cncc(C3CCNCC3)n2)n[nH]1 is less than 20%
OUTPUT: False

INPUT: Find out if reported INHIBITION for O=C(c1cc(C2CCCCC2)no1)N1C[C@H]2CC(O)C[C@H]2C1 (some centres not stated) is less than 20%
OUTPUT: True

INPUT: Find out if reported INHIBITION for Fc1ccccc1CN1CCCN(c2ncnc3[nH]ccc23)CC1 is less than 20%
OUTPUT: False

INPUT: Find out if reported INHIBITION for Cc1cc(CNC(=O)C(c2ccc(F)cc2)N(C)C)n[nH]1 (configuration not stated) is less than 20%
OUTPUT: False

INPUT: Find out if reported INHIBITION for Cc1ccc(C(C(=O)NCc2cc(C)[nH]n2)N(C)C)cc1 (configuration not stated) is less than 20%
OUTPUT: False

These entries and their values trace back to ChEMBL document CHEMBL4513216.
